- METHOD: GHS categories as the set defines them, by LD50: 1 up to 5, 2 up to 50, 3 up to 300, 4 up to 2000, 5 above 2000 mg/kg
- DETAILS: rat; in vivo; po
Task for the reader: assign each of the following compounds its reported GHS category.
Respond using a number only.

Query string: Supply recorded GHS category for `CCCCCCCC(=O)OCCCCCC` here.
Result string: 5

Query string: Supply recorded GHS category for `COc1cccc(OC)c1C(=O)O` here.
Result string: 4

Query string: Supply recorded GHS category for `Cc1ncc(CSSSCc2cnc(C)c(O)c2CO)c(CO)c1O` here.
Result string: 5

Query string: Supply recorded GHS category for `CCCCCCCCOC(=O)c1ccc(C(=O)OCCCCCCCC)cc1` here.
Result string: 5

Query string: Supply recorded GHS category for `O=C1c2c(Cl)c(Cl)c(Cl)c(Cl)c2C2=Nc3cccc4cccc(c34)N12` here.
Result string: 5

Query string: Supply recorded GHS category for `N[C@@H](CSCC(=O)O)C(=O)O` here.
Result string: 5

Query string: Supply recorded GHS category for `COc1cc(OC)nc(N=C(O)NS(=O)(=O)c2c(Cl)nc3ccccn23)n1` here.
Result string: 5

Query string: Supply recorded GHS category for `CCCCCCCCCC(OC)OC` here.
Result string: 5

Query string: Supply recorded GHS category for C=CC(C)(CCC=C(C)C)OC (configuration not stated) here.
Result string: 5

Query string: Supply recorded GHS category for `CCOC[C@H]1CO[C@@](Cn2ccnc2)(c2cc3cc(Cl)cc(Cl)c3o2)O1` here.
Result string: 4

Query string: Supply recorded GHS category for COc1ccc2c(c1)CCN(c1ccccc1)C2c1cccc(Br)c1 (configuration not stated) here.
Result string: 4

Query string: Supply recorded GHS category for `O=c1[nH]c(=O)n([C@H]2O[C@H](CO)[C@@H](O)[C@@H]2O)cc1/C=C\Br` here.
Result string: 5

Query string: Supply recorded GHS category for `O=C(c1ccccc1)c1cc([N+](=O)[O-])ccc1S(=O)(=O)NCCCN1CCOCC1` here.
Result string: 4

Query string: Supply recorded GHS category for `CC1(C)S[C@@H]2[C@H](NC(=O)COc3ccccc3)C(=O)N2[C@H]1C(=O)O` here.
Result string: 4

Query string: Supply recorded GHS category for O=C1OC(CN2CCCCC2)CC12CC(CN1CCCCC1)OC2=O (configuration not stated) here.
Result string: 5

Query string: Supply recorded GHS category for `O=S(=O)(O)c1ccccc1Nc1ccc(C(=C2C=CC(=Nc3ccccc3)C=C2)c2ccc(Nc3ccccc3)cc2)cc1` here.
Result string: 5

Query string: Supply recorded GHS category for `CCC(=O)C=Cc1ccc(OC)cc1` here.
Result string: 5

Query string: Supply recorded GHS category for `NC[C@@H]1CC[C@@H](N)[C@@H](O[C@H]2[C@H](O)[C@@H](O[C@H]3O[C@H](CO)[C@@H](O)[C@H](N)[C@H]3O)[C@H](N)C[C@@H]2N)O1` here.
Result string: 5

Query string: Supply recorded GHS category for `CCOC(=O)c1cnn(-c2cccc(C)c2)c1S(C)(=O)=O` here.
Result string: 4

Query string: Supply recorded GHS category for `CC(=O)Nc1cc2cccnc2c(N2CCN(CCO)CC2)n1` here.
Result string: 5

Query string: Supply recorded GHS category for `Brc1c(Br)c(Br)c(-c2c(Br)c(Br)c(Br)c(Br)c2Br)c(Br)c1Br` here.
Result string: 5

Query string: Supply recorded GHS category for `CCCCn1cc2c3c(cccc31)C1=C[C@@H](CO)CN(C)[C@@H]1C2` here.
Result string: 4
